ASSAY TARGET: LTD4 /E4 receptors (Cavia porcellus, UniProt Q2NNR5)
Construct: membrane fractions, containing the LTD4 /E4 receptors, are prepared from guinea-pig lung parenchyma
Sequence (Q2NNR5 whole entry): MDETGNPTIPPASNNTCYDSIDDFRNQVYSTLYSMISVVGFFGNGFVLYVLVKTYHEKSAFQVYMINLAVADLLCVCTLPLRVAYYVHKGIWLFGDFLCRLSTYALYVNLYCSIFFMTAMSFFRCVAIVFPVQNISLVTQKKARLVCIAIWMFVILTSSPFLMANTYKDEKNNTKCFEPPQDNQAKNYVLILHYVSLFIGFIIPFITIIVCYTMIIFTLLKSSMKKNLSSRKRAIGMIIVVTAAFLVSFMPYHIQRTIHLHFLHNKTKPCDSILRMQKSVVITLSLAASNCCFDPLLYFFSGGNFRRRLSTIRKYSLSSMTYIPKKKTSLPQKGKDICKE
METHOD DESCRIPTION: receptor-ligand binding assay, 3H-LTD4 on guinea-pig lung parenchyma membrane fractions
STATED CONDITIONS: 1 nM 3H-LTD4, 30 minutes at 22° C.; Ki calculated from IC50 by the Cheng-Prusoff equation
ASSAY ENDPOINT: Ki (nM)
Only the number, expressed in nM, is required.

Tell me the measured Ki of COc1cc(C(=O)NS(=O)(=O)c2ccccc2C)ccc1Cc1cn(C)c2ccc(CCNC(=O)N(C)C)cc12 , please. 1
